# Lookup of reported CMC keyed by entry
Assay: Critical micelle concentration by solubilization of a hydrophobic fluorescent dye
Format: physicochemical
Settings: Example 4, Table 3
Where a name gives a salt, the structure may show the parent alone.
Answer in mM, number only, no unit symbol.

Incoming: Look up and report measured CMC for this entry: CCCCN(CCCN(CCCC)C(=O)CCC(C)C1CCC2C3CCC4CC(OC5OC(CO)C(OC6OC(CO)C(O)C(O)C6O)C(O)C5O)CCC4(C)C3CC(OC3OC(CO)C(OC4OC(CO)C(O)C(O)C4O)C(O)C3O)C12C)C(=O)CCC(C)C1CCC2C3CCC4CC(OC5OC(CO)C(OC6OC(CO)C(O)C(O)C6O)C(O)C5O)CCC4(C)C3CC(OC3OC(CO)C(OC4OC(CO)C(O)C(O)C4O)C(O)C3O)C12C (stereo not shown) [TFA-9a]
Outgoing: 0.01

Incoming: Look up and report measured CMC for this entry: CC(CCC(=O)N(C)CCCN(C)C(=O)CCC(C)C1CCC2C3CCC4CC(OC5OC(CO)C(OC6OC(CO)C(O)C(O)C6O)C(O)C5O)CCC4(C)C3CC(OC3OC(CO)C(OC4OC(CO)C(O)C(O)C4O)C(O)C3O)C12C)C1CCC2C3CCC4CC(OC5OC(CO)C(OC6OC(CO)C(O)C(O)C6O)C(O)C5O)CCC4(C)C3CC(OC3OC(CO)C(OC4OC(CO)C(O)C(O)C4O)C(O)C3O)C12C (stereo not shown) [TFA-4a]
Outgoing: 0.014

Incoming: Look up and report measured CMC for this entry: CCN(CCCN(CC)C(=O)CCC(C)C1CCC2C3CCC4CC(OC5OC(CO)C(OC6OC(CO)C(O)C(O)C6O)C(O)C5O)CCC4(C)C3CC(OC3OC(CO)C(OC4OC(CO)C(O)C(O)C4O)C(O)C3O)C12C)C(=O)CCC(C)C1CCC2C3CCC4CC(OC5OC(CO)C(OC6OC(CO)C(O)C(O)C6O)C(O)C5O)CCC4(C)C3CC(OC3OC(CO)C(OC4OC(CO)C(O)C(O)C4O)C(O)C3O)C12C (stereo not shown) [TFA-7a]
Outgoing: 0.013

Below: the item to evaluate.
Incoming: Look up and report measured CMC for this entry: CCCCCN(CCCN(CCCCC)C(=O)CCC(C)C1CCC2C3CCC4CC(OC5OC(CO)C(OC6OC(CO)C(O)C(O)C6O)C(O)C5O)CCC4(C)C3CC(OC3OC(CO)C(OC4OC(CO)C(O)C(O)C4O)C(O)C3O)C12C)C(=O)CCC(C)C1CCC2C3CCC4CC(OC5OC(CO)C(OC6OC(CO)C(O)C(O)C6O)C(O)C5O)CCC4(C)C3CC(OC3OC(CO)C(OC4OC(CO)C(O)C(O)C4O)C(O)C3O)C12C (stereo not shown) [TFA-10a]
Outgoing: 0.004

These measurements were taken from patent US10316057B2.
